Test system: Rattus norvegicus
Test: Estimated oral dose depressing motor activity by 50% in rats(po)
Format: functional
REPORTED METRIC: log10 of MDD50 (log10 of the value in mg/kg)
Annotation: log10 of MDD50, mg/kg basis.

These recorded examples may help you get a feel for the data.
CN(C)CCCN1c2ccccc2Sc2ccc(Cl)cc21 :: 0.38
CN1CCN(C2=Nc3ccc(Cl)cc3Cn3cccc32)CC1 :: 1.70
CN1CCN(C2=Nc3cc(Cl)ccc3Cn3cccc32)CC1 :: 1.08

Ask: If you can, please state the reported log10 of MDD50 value of CN1CCN(C2=Nc3ccccc3Cn3cccc32)CC1 .
Result: 0.85

Ask: If you can, please state the reported log10 of MDD50 value of CN1CCN(C2=Nc3cc(Cl)ccc3Nc3ccccc32)CC1 .
Result: 1.32
